Where do these numbers come from? They come from PubChem BioAssay (NCI).

# assay.text: NCI Yeast Anticancer Drug Screen. Data for the mec2-1 strain (AID 157)
# run.parameters: S. cerevisiae mec2-1 strain, at 50.0 µM, hits give high values
This is part of a sample that, as a whole, favours compounds with a hit. Of some 79,000 tested, about 15% had one in any assay.
Consider the following molecules; for each one, report its growth inhibition.
Quick reminder: number only, in %, skip the unit.

Q: Need growth inhibition of Cc1ccc(N(C(=O)Nc2ccc(F)c(Cl)c2)C2=NCC(C)S2)cc1 (configuration not stated) , thanks.
Ans: -14.4

Q: Input O=S(=O)(O)c1cc(O)c(N=NC2S(=O)(=O)OCCOS2(=O)=O)c2ccccc12
Ans: 2.7

Q: Another molecule to check: CC(C)NCC1CCCO1 (configuration not stated)
Ans: -23.2

Q: Next: COC1OC(COC(=O)c2ccc([N+](=O)[O-])cc2)C(O)C1SC#N (configuration not stated)
Ans: -2.3

Q: Next up: CC1(c2ccncc2)NC(=O)NC1=O (configuration not stated)
Ans: -12.6

Q: Let us now turn to CN(C)c1ccc(C(=O)C2CCCCC2)cc1
Ans: 7.5

Q: Follow-up entry: COc1ccc(C(=O)c2ccc(Cl)s2)cc1
Ans: -4.85

Q: Try the molecule CCOC(=O)CCC(NC(=O)c1ccc(OCc2ccc3nc(OC)c(OC)nc3c2)cc1)C(=O)OCC (configuration not stated)
Ans: -17.9

Q: Param item: CC(C)=CC1C(C(=O)Oc2c(Cl)c(Cl)c(Cl)c(Cl)c2Cl)C1(C)C (configuration not stated)
Ans: 6.5

Q: Now consider CC(C)C(NC(=O)c1cnc2ccccc2n1)C(=O)O (configuration not stated) .
Ans: -5.5

Q: Another molecule to look at: O/N=C/c1cccc[n+]1Cc1ccccc1
Ans: 6.3

Q: Let us now turn to COc1ccc2c(c1)CCCN1CCc3cc(OC)c(OC)cc3C21 (configuration not stated)
Ans: 60.8

====

# assay.text: NCI Yeast Anticancer Drug Screen. Data for the bub3 strain (AID 167)
# run.parameters: S. cerevisiae bub3 mutant strain, at 50.0 µM, hits give high values
About 79,000 compounds went through this panel and 15% of them were active in at least one assay; those are over-represented in the sample as a whole. Where a SMILES comes first, the peptide text is derived from it. [ ]: non-standard residue; d: D form. The star is where a group is joined. ONb = O=[N+]([O-])c1ccc(CO*)cc1; AllylGly = C=CC[CH](N)C(=O)O; Boc = CC(C)(C)OC(=O)*
experimental.readout: growth inhibition (%)
Record the value in %, omitting the unit from your answer.

Q: growth inhibition lookup needed for CC(=O)OCCC12CCC(CC1Cl)C2(C)C (stereo not drawn) , thanks.
Ans: -3.05

Q: Input c1ccc(SCCCCSc2ccccc2)cc1
Ans: 14.1

Q: What do you get for CCCCCCCCCCCCCCCCCC(=O)Oc1c(C(C)CC)cc([N+](=O)[O-])cc1[N+](=O)[O-] (stereo not drawn) ?
Ans: 10.1

Q: Follow-up entry: CC(=O)c1sc(Nc2nnc(-c3ccc(-c4nnc(Nc5nc(C)c(C(C)=O)s5)o4)cc3)o2)nc1C
Ans: -3.05

Q: Next: OCCN(CCO)c1ncnc2c1ncn2-c1ccc(CCCl)cc1
Ans: 19

Q: Field entry: c1ccc2c(OCCSCCCCCCCCCCSCCOc3cccc4ccccc34)cccc2c1
Ans: -3.6

Q: Queued: Cc1ccc(C(=O)OC2CCCC2)cc1
Ans: -15.7

Q: # repeat for O=C(C[n+]1ccncc1)c1ccccc1
Ans: -10.2

Q: Thanks! And c1cc2c3c(c1)ccc1cccc(c13)CC2 ?
Ans: -22.8

Q: Further, for Cc1cccc(NC(=O)COc2c(C)cc(Cl)cc2Cl)c1 ?
Ans: 38

Q: Param item: CO[C@H]1CC[C@@]2(C)C(=CC[C@H]3[C@@H]4CC[C@H]([C@H](C)CCCC(C)C)[C@@]4(C)CC[C@@H]32)C1
Ans: 17.2

Q: What about this molecule? OC1(c2cccc(C(F)(F)F)c2)CCNCC1
Ans: -22.6

Q: Same thing, different molecule: OCc1ccccc1CC(O)c1ccccc1 (stereo not drawn)
Ans: 0.05

Q: Query OC1CCC(C2CCCCC2)CC1 (stereo not drawn) next
Ans: -14.3

Q: Cool, now C/C(=N\NC(=O)/C(C#N)=C\c1ccc(N(CCC#N)CCC#N)cc1)c1ccccc1
Ans: -7.4

Q: Also, NC(=O)O/N=C/c1ccccn1 please.
Ans: -2.65

Q: Now the molecule CC1=C(c2cc(C(=O)Nc3cc(C)ccc3C)nc(N)n2)Sc2ccccc2N1
Ans: -13.1

Q: For Cc1cccc(/C=C/C(=O)C(C)CN(C)C)c1 (stereo not drawn) then?
Ans: 28.6

Q: Query CCOC(=O)/C(F)=C/c1ccc(C)cc1 next
Ans: 0.15

Q: Try this molecule next: CCOC(=O)c1cc(CC)sc1N
Ans: 12.2

Q: Same question, C=CCC(NC(=O)OC(C)(C)C)C(=O)NC(CCC(=O)OCc1ccc([N+](=O)[O-])cc1)C(N)=O (stereo not drawn) (Boc-[AllylGly]-Glu(ONb)-NH2; configuration not given here) this time
Ans: -2.35

Q: Then what about the molecule CC(=O)CC(=O)ON(C)C(C)=O ?
Ans: -14.3

Q: // query: Oc1ccc(-c2csc(NNC3=NC/C(=C/c4ccc5c(c4)OCO5)S3)n2)cc1O
Ans: 21.1
